Source of measurements: PubChem BioAssay (NCI)

tested on: RPMI-8226 leukemia; test: NCI tumour cell line growth inhibition, 48 h
Outcome measure: TGI (µM)
Give bare numbers, in µM.

Substance smiles | Units | TGI
O=C(Cc1ccccc1)c1ccc2[nH]c(=O)oc2c1 | µM | 64.4

Okay, here is my list. What is TGI for each of these?
1. COC(=O)c1c(C(=O)OC)c2cc(C(=O)c3ccccc3)ccn2c1Cl
2. O=C1c2ccccc2-c2c1c1ccccc1c(=O)n2CCNCCNCCn1c2c(c3ccccc3c1=O)C(=O)c1ccccc1-2
3. C=C(CN1CCc2ccccc2C1)c1ccc(C(=O)Nc2ccc(N)cc2)cc1

1: 51.7; 2: 1.24; 3: 19

---

system: HOP-62 NSCLC; assay: NCI tumour cell line growth inhibition, 48 h
Kindly state TGI for each of the entries shown.

Solved entries (count: 2):
Substance smiles | Outcome measure | Result
O=S(=O)(O)c1c(N=Nc2c(O)ccc3ccccc23)ccc2ccccc12 | TGI | > 100 µM
C[N+](C)(CCCCCC[N+](C)(C)CCCN1C(=O)c2cc3ccccc3cc2C1=O)CCCN1C(=O)c2ccccc2C1=O | TGI | > 37.5 µM

Turning now to a further record.
Item N=C(N)CCCCCCCCC(=N)N ; assay system HOP-62 NSCLC; TGI reported as > 100 µM

---

tested on: ACHN renal; assay: NCI tumour cell line growth inhibition, 48 h
Outcome measure: TGI

# annotated cases, reported TGI shown
Substance smiles | Outcome measure | Result
CC1=Cc2cc3[n-]c(cc4nc(cc5[n-]c(cc1n2)cc5C)C(C)=C4CCC(=O)O)c(CCC(=O)O)c3C.[Pd+2] | TGI | 16.6 µM
Cc1cc(C)nc(Nc2nc3ccc([N+](=O)[O-])cc3[nH]2)n1 | TGI | > 100 µM

Now turn to the next compound.
TGI for O=[N+]([O-])/C=C/c1c[nH]c2ccccc12 is 32.3 µM

---

system: KM12 colon; assay: NCI tumour cell line growth inhibition, 48 h
Assign TGI to each entry below.
Answers are plain numbers, in µM.

Molecule | Target under test | Quantitative readout
CCOC(=O)n1cncc1CC(NC(=O)Cc1c(C(=O)C=C(C)C)[nH]c2ccccc12)C(=O)OC (stereo not given) | KM12 colon | 39.1

Can you give me TGI for all of these, one by one?
1. CC(=O)Nc1ccc2c(C)c3c4ccccc4n(C)c3nc2n1
2. S=C(Nc1ccc(Cl)cc1)Nc1ccc(Cl)cc1 (tested in a mixture with another compound)

1: 40.2; 2: 9.1

Look at each molecule and report its TGI.
1. CC1=Cc2cc3[n-]c(cc4nc(cc5[n-]c(cc1n2)cc5C)C(C)=C4CCC(=O)O)c(CCC(=O)O)c3C.[Pd+2]
2. CN(C)CCNc1ccc2c(=O)n(CCN(C)C)c(=O)n3c4ccc(N)cc4c(=O)c1c23

1: 53.3; 2: 7.52

---

Assignment: determine reported TGI for the given compounds.
system: UO-31 renal; test: NCI tumour cell line growth inhibition, 48 h

Compound | Target under test | TGI
O=C1C(=O)N(c2ccc(Cl)c(Cl)c2)C(=O)C(=O)C1c1nc2ccccc2o1 | UO-31 renal | > 100 µM
CCSc1nc(N=Cc2cccs2)c2cn[nH]c2n1 | UO-31 renal | > 100 µM
CC(=O)Nc1ccc(C2[C@H]3C(=O)N(c4ccc(Cc5ccc(N6C(=O)[C@@H]7ON(c8ccccc8)C(c8ccc(NC(C)=O)cc8)[C@@H]7C6=O)cc5)cc4)C(=O)[C@H]3ON2c2ccccc2)cc1 (stereo not given in full) | UO-31 renal | > 100 µM
O=C(CCCn1ccnc1[N+](=O)[O-])NCCn1ccnc1 | UO-31 renal | > 100 µM
CC(=O)CCC[C@@H](C)[C@@H]1O[C@H]([C@@]2(C)CCC(=O)O2)C[C@H]2C(CSc3ccccc3)C(=O)O[C@@H]12 (stereo not given in full) | UO-31 renal | 31.1 µM

Could you tell me TGI for each of these compounds? They are listed below.
1. COC(=O)C1=C(O)C(O)=C(C(=O)OC)C1
2. O=C1c2ccccc2-c2ccc(N=[N+]([O-])c3ccc4c(c3)C(=O)c3ccccc3-4)cc21
3. CNC(=O)c1n[nH][nH]c1=O

> 100 µM
> 100 µM
> 100 µM

Provide reported TGI for each item, in the same order as listed.
1. C[N+](C)(CCCCCC[N+](C)(C)CCCN1C(=O)c2cc3ccccc3cc2C1=O)CCCN1C(=O)c2ccccc2C1=O
2. COc1ccc(SC(C)(SC)c2ccccn2)c(OC)n1 (stereo not given)

["> 37.5 µM", "> 100 µM"]

---

tested on: SK-OV-3 ovarian; assay: NCI tumour cell line growth inhibition, 48 h
Outcome measure: TGI

Recorded results for 5 compounds are shown here.
Compound | Result
N=C1C(=N)c2ccccc2-c2ccccc21 | 3.07 µM
CCCCCCCCCCCCCCCCP(=O)(O)OP(=O)(O)OCC1OC(n2cnc3c(N)ncnc32)C(O)C1O (stereo unspecified) | > 100 µM
CC1NOC(=O)C1N=Nc1ccccc1Cl (stereo unspecified) | 94.4 µM
CC1(C)N=C(N)N=C(N)N1c1cc(Cl)ccc1Cl | > 100 µM
CC(=O)N1c2ccccc2Sc2cc(C(O)(C(F)(F)F)C(F)(F)F)ccc21 | > 10 µM

In plain terms, CCSc1nc(N=Cc2cccs2)c2cn[nH]c2n1 has a documented TGI of > 100 µM

---

I'd be grateful if you could share measured GI50 for these entries.
test system: SK-MEL-2 melanoma; assay: NCI tumour cell line growth inhibition, 48 h

Reference set (4 entries):
Molecule | Result
O=C1CCC2(C=C(Br)C(=O)C(Br)=C2)O1 | 15 µM
S=C(Nc1ccc(Cl)cc1)Nc1ccc(Cl)cc1 (tested in a mixture with another compound) | 2.34 µM
O=C1c2ccccc2-c2c1c1ccccc1c(=O)n2CCCN1CCOCC1 | 19.5 µM
N.N.NC(CS)C(=O)[O-].NC(CS)C(=O)[O-].[Pt+4] (stereo not given) | > 50 µM

# GI50 (molecule: Cc1nc2cccc(NCc3ccc(C(=O)NO)cc3)c2c(=O)n1-c1ccccc1 ) is 2.36 µM

---

Kindly state TGI for each of the entries shown.
system: ACHN renal; assay: NCI tumour cell line growth inhibition, 48 h

Recorded TGI, per entry:
Compound | TGI
O=C1C(=O)c2ccccc2C(O)=C1C(CCc1ccccc1)C1=C(O)c2ccccc2C(=O)C1=O | > 100 µM
C[N+]1(C)CCC(C#N)(c2ccccc2)CC1 | > 100 µM

Provide TGI values for the following items, in order.
1. O=C(C(Br)Br)C(Br)C(Br)c1ccccc1 (centres undefined)
2. N#C/C=C1\C=CC(O)C(O)C1OC1OC(CO)C(O)C(O)C1O (centres undefined)
3. O=C(NOCC1CC1)c1ccc(F)c(F)c1Nc1ccc(I)cc1Cl
4. NC1CC(=O)c2cc(Br)sc21 (centres undefined)
5. CC(=O)OCC1OC(n2c(=O)n(-c3ccccc3)c(=O)c3ccccc32)C(OC(C)=O)C(OC(C)=O)C1OC(C)=O (centres undefined)

3.18 µM
> 100 µM
> 39 µM
> 100 µM
> 100 µM

Would you mind giving TGI for every compound in the list below?
1. CC1OC(O[C@H]2CC[C@]3(C)[C@H]4CC=C5[C@@H]6[C@@H](C)[C@H](C)CC[C@]6(C(=O)O)CC[C@@]5(C(=O)O)[C@]4(C)CC[C@H]3C2(C)C)C(O)C(O)C1O (some centres undefined)
2. CC(=O)/C=C/c1ccc(C2CC(C)=Nc3c(ccc4c3C(=O)c3ccccc3C4=O)N2)cc1 (centres undefined)

["> 75 µM", "> 100 µM"]

---

system: MDA-N; experiment: NCI tumour cell line growth inhibition, 48 h
Outcome measure: TGI

Molecule | Outcome measure | Result
CC1(C)COC(/C=C/C2=NC(C)(C)CO2)=N1 | TGI | 48.7 µM
CSc1cc(Cl)c(C)cc1S(=O)(=O)NC(=O)NNc1ccc(F)c(Cl)c1 | TGI | > 100 µM
CC(C)CC1c2[nH]c3ccccc3c2C[C@H]2C(=O)NC(CCC(=O)OC(C)(C)C)C(=O)N12 (stereo partly drawn) | TGI | > 100 µM
CC(=O)O[C@H]1C(=O)[C@@]2(C)[C@H]([C@H](OC(=O)C3CCCCC3)[C@]3(O)C[C@H](OC(=O)[C@H](O)[C@@H](NC(=O)C4CCCCC4)C4CCCCC4)C(C)=C1C3(C)C)[C@]1(OC(C)=O)CO[C@@H]1C[C@@H]2O | TGI | 0.00852 µM
COC(=O)Nc1nc2ccccc2c(=O)[nH]1 | TGI | 50.8 µM

For every item in the list below, what is its measured TGI?
1. O=C1c2ccccc2-c2ccc(N=[N+]([O-])c3ccc4c(c3)C(=O)c3ccccc3-4)cc21
2. CC1OC(O[C@H]2CC[C@]3(C)[C@H]4CC=C5[C@@H]6[C@@H](C)[C@H](C)CC[C@]6(C(=O)O)CC[C@@]5(C(=O)O)[C@]4(C)CC[C@H]3C2(C)C)C(O)C(O)C1O (stereo partly drawn)
3. Nc1nc(SCc2ccccc2)c2ncn(Cc3ccccc3)c2n1

1: > 100 µM; 2: > 75 µM; 3: > 100 µM
